test-details: reducers of endogenous Her2 protein level, primary screen, SKBR3 breast tumor cells, AlphaScreen, ATP viability (AID 461);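 further: percent of carrier control wells set as 100% viability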
condition-context: 18-24 h, measured here: SKBR3 viability, ATP luminescence, at 10 µM
Strictly below 90% in viability: t. Otherwise: f.

molecule=O=C(Nc1ccc(S(=O)(=O)N2CCc3ccccc32)cc1)c1ccc2c(c1)OCO2 cat=t
molecule=C/C(Cl)=C/Cn1c(SCc2ccc(Cl)cc2)nc2c1c(=O)[nH]c(=O)n2C cat=f
molecule="CC(CCc1ccccc1)NC(=O)c1ccc(Br)o1 (stereo not drawn)" cat=f
molecule=O=C(CCn1c(=O)oc2ccccc21)NCCN1CCc2ccccc2C1 cat=t
molecule=CCOC(=O)N1CCN(C(=O)CN(C)S(=O)(=O)c2ccc(OC)c(OC)c2)CC1 cat=f
molecule=CCCCCCc1ccc(-c2ncc(N)cn2)cc1 cat=f
molecule=CCOC(=O)CCNC(=O)Nc1ccc2nc(C)n(Cc3ccccc3Cl)c(=O)c2c1 cat=t
molecule=Cc1nn(-c2ccccc2)c2c1C(=O)NC(=O)C(C)(C)C2 cat=f
molecule=COC(=O)c1ccc2c(=O)n(Cc3ccco3)c(SCC(=O)Nc3ccc(C)c(Cl)c3)nc2c1 cat=t
molecule=COc1ccccc1OCc1ccc(C(=O)Nc2ccncc2)o1 cat=t
molecule="CC(C)=CCC(C)(C)C1OCCN1C(=O)c1ccccc1 (stereo not drawn)" cat=t
molecule=CCCc1cc(=O)n2[nH]cnc2n1 cat=f
molecule="CCOC(=O)C1CCN(c2nc3ccccc3nc2C(C#N)C(=O)OC(C)C)CC1 (stereo not drawn)" cat=f
molecule=CC(C)(C)c1ccc(-c2nnc(SCCC#N)n2C2CCCC2)cc1 cat=t
molecule=CCCc1cc(-c2n[nH]c(C)c2-c2ccc(C(=O)OCC)o2)c(O)cc1O cat=t
molecule=Cc1[nH]nc(N=CC2=C(O)CC(C)(C)CC2=O)c1-c1ccc(Cl)cc1 cat=f
molecule=CCOC(=O)c1cnc(-n2nc(C)cc2C)nc1Nc1ccc(N(C)C)cc1 cat=f
molecule="COc1ccccc1-c1nnc(SCC(=O)N2CC(C)CC(C)C2)o1 (stereo not drawn)" cat=t
molecule=COc1ccc(N2CCN(C(=O)CSc3nnc(Cn4nnc5ccccc54)n3C)CC2)cc1 cat=f
molecule=CCOC(=O)C1CCN(C(=O)Nc2ccc3snnc3c2)CC1 cat=f
molecule=Oc1ccccc1-c1cc(C(F)(F)C(F)F)[nH]n1 cat=f
molecule="C/C(CC(O)(/C=N/O)c1ccccc1)=N\\O (stereo not drawn)" cat=t

###

test-details: HUVEC growth inhibition – cell-based, human, primary screen (AID 575);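 further: 100% = median of untreated cell wells with 0.1% DMSO on each plate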
condition-context: HUVEC proliferation, CellTiter-Glo luminescence, 72 h; at 10 µM; stronger effect = lower value
Active and inactive are the calls of the source.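 The calls were made as follows: active = viability at or below 30% in both replicate assays; inconclusive = viability at or below 30% in just one of the two assays; inactive = the rest.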
measurement-name: viability

compound="COCCOC(=O)C1=C(C)NC(=O)CC1c1cc2c(cc1Br)OCO2 (stereo not drawn)" value="89.4% (inactive)"
compound="O=C(OC1CCc2ccccc2C1=O)c1ccccc1O (stereo not drawn)" value="106% (inactive)"
compound=CC(=O)c1ccc(NC(=O)c2cc(CC(C)C)on2)cc1 value="120% (inactive)"
compound="C=CCNc1nnc(SC2CC(=O)N(c3ccc(OC)cc3)C2=O)s1 (stereo not drawn)" value="108% (inactive)"
compound=COc1ccc(CCNc2oc(-c3ccco3)nc2C#N)cc1 value="96.7% (inactive)"
compound="O=C1NCC(COCc2ccccc2)O1 (stereo not drawn)" value="103% (inactive)"
compound=Cc1cc(/C=c2/sc3nc4ccccc4n3c2=O)c(C)n1-c1ccccn1 value="77.6% (inactive)"
compound="CC(C)C(C(=O)Nc1ccc2c(c1)OCO2)N1C(=O)c2ccccc2C1=O (stereo not drawn)" value="94.3% (inactive)"
compound=COc1cc([C@@H]2[C@H]3CN(C)CC=C3C(C#N)=C(N)C2(C#N)C#N)cc2c1OCO2 value="93.1% (inactive)"
compound=CCOC(=O)N1CCC(NC(=O)Cc2ccc(-n3c(=O)[nH]c4ccccc4c3=O)cc2)CC1 value="97.6% (inactive)"
compound="CCOC(=O)CSC1=Nc2ccccc2C2=NC(CC(=O)NCc3cccs3)C(=O)N12 (stereo not drawn)" value="81.9% (inactive)"
compound=O=C1CN(C(=O)COC(=O)C23CC4CC(CC(O)(C4)C2)C3)c2ccccc2N1 value="104% (inactive)"
compound="C=CCn1c(=O)c2ccccc2n2c(SC(C)C(=O)Nc3nc(-c4ccccc4)cs3)nnc12 (stereo not drawn)" value="65.7% (inactive)"
compound="CCOC(=O)c1[nH]c2cc(OC)c(OC)cc2c1NC(=O)C(C)N1CCN(Cc2ccccc2)CC1 (stereo not drawn)" value="51.3% (inactive)"
compound=CC(C)n1c(=NC(=O)c2ccco2)c(C#N)cc2c(=O)n3ccccc3cc21 value="84.1% (inactive)"
compound="Cc1ccc2nc3c(cc2c1)CN(Cc1ccco1)C(=NCC1CCCO1)S3 (stereo not drawn)" value="65.6% (inactive)"
compound=O=C(NC1CCCCCC1)c1cc(S(=O)(=O)N2CCC3(CC2)OCCO3)ccc1F value="98.2% (inactive)"
compound=Cn1cccc1Cc1nnc(SCC(=O)N2CCOCC2)n1-c1ccc(F)cc1 value="106% (inactive)"
compound="COc1cccc(NC(=O)N(Cc2ccco2)C(C)c2cccs2)c1 (stereo not drawn)" value="88.9% (inactive)"
compound=O=C(CSc1nnnn1C1CCCC1)N1CCN(C(=O)c2ccco2)CC1 value="105% (inactive)"
compound="CCOC(=O)C1C2C=CC3(CN(Cc4ccco4)C(=O)C13)O2 (stereo not drawn)" value="95.6% (inactive)"
compound="CCN(CC)C(=O)C1=C(C)Nc2nnnn2C1c1cccnc1 (stereo not drawn)" value="109% (inactive)"
compound=CC(=O)OCC(=O)[C@@]1(O)CC[C@H]2[C@@H]3CCC4=CC(=O)CC[C@]4(C)[C@H]3C(=O)C[C@@]21C value="95.9% (inactive)"
compound=C=CCNC(=O)c1ccc(Cl)cc1Cl value="92.8% (inactive)"
compound=C=CCN(CC=C)C(=O)Nc1cc(Cl)ccc1OC value="95.3% (inactive)"
compound=COC(=O)c1ccccc1NC(=O)Nc1cc(C)cc(C)n1 value="103% (inactive)"
compound="Cc1ccc(-c2nnc(SC(C)C#N)n2N)cc1 (stereo not drawn)" value="88.5% (inactive)"
compound="CC1CN(C2CCCCC2)c2nc3c(c(=O)[nH]c(=O)n3C)n2C1 (stereo not drawn)" value="86.1% (inactive)"

###

test-details: 384-well plate pilot, post-Golgi transport modulator project, inhibition of yeast transport mutant growth (AID 636)
condition-context: absorbance 615 nm, about 18 h, stronger effect = higher value
// inhibition lookup, one value per entry
measurement-name: inhibition (%)

compound="C=CCOC(=O)CC(NC(=O)c1ccccc1)c1ccccc1 (stereo unspecified)" value=-3.73
compound="CCN1CCN(CCNC(=O)c2cn(C(C)c3ccccc3F)nn2)CC1 (stereo unspecified)" value=-2.73
compound=CCOc1ccc(-c2nc(N)ncc2-c2ccccc2)c(O)c1 value=-5.95
compound=O=C(CN1C(=O)c2ccccc2S1(=O)=O)Nc1ccc(S(=O)(=O)N2CCCCCC2)cc1 value=5.48
compound=Cc1ccc(-c2nn(-c3ccccc3)cc2/C=C(\C#N)c2cccc(C#N)c2)o1 value=-9.32
compound=COc1ccc(C(=O)NCCc2nnc(SCc3nc4ccccc4c(=O)[nH]3)n2C)cc1 value=-5.89
compound="O=C(C1CC2CCC1C2)N1CCN(Cc2ccc3c(c2)OCO3)CC1 (stereo unspecified)" value=-4.68
compound=CCN(C(=O)c1ccnc(C(C)(C)C)c1)c1ccccc1 value=-6.85
compound="COC(=O)c1ccc(C2CC(=O)Nc3cc(OC)c(OC)c(OC)c32)cc1 (stereo unspecified)" value=-3.47
compound=Cc1ccccc1-n1nnc2c(=O)oc3ccccc3c21 value=-4.47
compound=Cc1nc2ccc(S(=O)(=O)NCC(=O)N3CCCCC3)cc2s1 value=-2.99
compound=CCOC(=O)C1CCN(C(=O)c2c(-c3c(Cl)cccc3Cl)noc2C)CC1 value=-2.73
compound=O=C(Nc1cc(C(=O)N2CCCC2)ccc1N1CCCC1)c1ccccc1F value=-8.13
compound=Cc1cc(NC(=O)c2cnn3c(C(F)F)cc(C4CC4)nc23)no1 value=-1.43
compound=CCc1[nH]nc2c1C1(CCN(C(=O)OCc3ccccc3)CC1)C(C#N)=C(N)O2 value=-8.9
compound=CC(C)Cc1nc2oc3c(N4CCN(CCO)CC4)ncnc3c2c2c1CCCC2 value=-0.26
compound="CC(C)(C)NCC(O)c1cc(O)cc(O)c1 (stereo unspecified)" value=-2.73
compound=O=C(CN1C(=O)COc2ccccc21)NCCN1CCc2ccccc2C1 value=-4.68
compound=CCCCc1ccc(NC(=O)N[C@H](C(=O)O)C(C)C)cc1 value=-2.05
compound=NS(=O)(=O)c1ccc(C(=O)O)cc1 value=5.45
compound=Fc1cccc(Cl)c1Cn1nnc2c(NCc3ccccn3)ncnc21 value=-4.66
compound="CCOC(=O)C1=C(C)NC(=O)C(C#N)C1c1ccco1 (stereo unspecified)" value=-4.8
compound="Cc1[nH]n(C(N)=S)c(=O)c1C(c1ccccc1)C(C#N)C#N (stereo unspecified)" value=3.46
compound=COCCn1cc(C(=O)NCCCN2CCC(C)CC2)c2c3ccccc3n(C)c2c1=O value=-5.97
compound=Cc1ccc2[nH]c(=O)c(CN(CCCO)S(=O)(=O)c3c(C)ccc4nsnc34)cc2c1 value=-1.18
compound=Cc1sc2nc(SCC(=O)NCc3ccco3)n(CCc3ccccc3)c(=O)c2c1C value=-6.27
